Hello, the source for this data is ChEMBL document CHEMBL4138137, in case you need it.

# Test Name: Metabolic stability in mouse microsomes
# Assay type: ADME, Microsome
# Particulars: read-out: Stability
Measured Property: microsomal CLint (µL/min/mg)

[[record]]
mol_smiles = "O=C(c1cncc2ccccc12)N1CCN(C(=O)c2ccc(Br)cc2)[C@@H](c2ccc(Cl)cc2)C1"
test_value = 202


(1) O=C(c1ccnc2ccccc12)N1CCN(C(=O)c2ccc(Br)cc2)[C@@H](c2ccc(Cl)cc2)C1
(2) Cn1cc(C(=O)N2CCN(C(=O)c3ccc(Br)cn3)[C@@H](c3ccc(Cl)cc3)C2)cc(-c2cccc(C#N)c2)c1=O
(3) O=C(c1cnn2cc(Br)ccc12)N1CCN(C(=O)c2ccc(Br)cn2)[C@@H](c2ccc(Cl)cc2)C1
[Q] Task for the reader: rank each entry by its microsomal CLint, from the minimum upward. Record the ranking as a list of labels in the requested order.
[A] 2, 1, 3
(2: 6 µL/min/mg, 1: 143 µL/min/mg, 3: 207 µL/min/mg)
